- subject-of-test: Neu5Ac(a2-3)GalNAc
- protocol-summary: glycan array binding signal (z-score within array); higher = stronger binding
- condition-notes: glycan notation: IUPAC condensed, linker removed
The entries come from a sample that favours the strongest signals as a whole.
test-readout: glycan array binding signal (z-score)
Numbers only.

Observe how each entry below is paired with its result.
AAL (Aleuria aurantia), P18891 (protein) PTEFLYTSKIAAISWAATGGRQQRVYFQDLNGKIREAQRGGDNPWTGGSSQNVIGEAKLFSPLAAVTWKSAQGIQIRVYCVNKDNILSEFVYDGSKWITGQLGSVGVKVGSNSKLAALQWGGSESAPPNIRVYYQKSNGSGSSIHEYVWSGKWTAGASFGSTVPGTGIGATAIGPGRLRIYYQATDNKIREHCWDSNSWYVGGFSASASAGVSIAAISWGSTPNIRVYWQKGREELYEAAYGGSWNTPGQIKDASRPTPSLPDTFIAANSSGNIDISVFFQASGVSLQQWQWISGKGWSIGAVVPTGTPAGW    -0.531
DC-ASGPR L+GEE (Homo sapiens) (protein) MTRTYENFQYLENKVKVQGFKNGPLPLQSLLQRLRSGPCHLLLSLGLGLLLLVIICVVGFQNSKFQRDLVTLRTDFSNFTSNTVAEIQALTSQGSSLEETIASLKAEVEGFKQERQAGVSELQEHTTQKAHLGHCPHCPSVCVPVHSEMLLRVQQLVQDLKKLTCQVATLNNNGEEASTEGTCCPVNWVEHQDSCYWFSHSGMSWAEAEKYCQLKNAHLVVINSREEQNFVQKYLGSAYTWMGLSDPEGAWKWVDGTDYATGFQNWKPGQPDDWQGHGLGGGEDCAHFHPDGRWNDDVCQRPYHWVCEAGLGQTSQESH    -0.223

We next turn to a different binder, shown below.
IN: Assign glycan array binding signal (z-score) to the following record: ASAL (Allium sativum), P83886 (protein) MGRTTSSPKAMMRIATVAAILTILASTCMARNVLTNGEGLYAGQSLDVEQYKFIMQDDCNLVLYEYSTPIWASNTGVTGKNGCRAVMQRDGNFVVYDVNGRPVWASNSVRGNGNYILVLQKDRNVVIYGSDIWSTGTYRRSVGGAVVMAMNGTVDGGSVIGPVVVNQNVTAAIRKVGTGAA
OUT: -0.276
